# target-desc: T1, ECF03_1244
# T1 chain: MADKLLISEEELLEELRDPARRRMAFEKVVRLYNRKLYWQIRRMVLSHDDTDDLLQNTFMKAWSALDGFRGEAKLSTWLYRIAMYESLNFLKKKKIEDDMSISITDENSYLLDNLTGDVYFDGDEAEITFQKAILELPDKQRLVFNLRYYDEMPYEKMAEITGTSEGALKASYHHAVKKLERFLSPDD
outcome-measure: fold repression

- AS20_992 (protein) MTPERFVHLADAYGADLQRWPSAERAAAQALLDCGDAQAVAALRQAHWLDSQLDRYQVPAPSPALAQRIIAAAQQPGAPFWSRYAGWLASLGWVGVGLTGVAAGMLAVALSLPLSTSAEALPSVFDQSDAEFVLSINAEEAEQ: 1.39
- AS33_423 (protein) MMAMSNTMPDPREPGDVEALLPWYAAGTLNARDARRVADALDRDPALARQYAVILEEYASTIELNESLGAPSSRAMQKLFAAIDAEPARAPGAGQGLGARFAGFFAGLSPKALAWSASVAGLALLLQAGLIGALLTWPHAAPVQTAAYQPQREVARAPASSPAPATVSPPAAAMADRAADAGKSTPPMVMAERSGGPVVRSLAPQSGPRVLVKFAPEARASEIAALLDQYNAVVVDSSRGGLFRLQFGTQSLSKQDQETLIGRLQKEPVVSVVLSAP: 13.5

All values here come from paper PMC3817407.
